Test: yeast NALP1 reporter signal suppression – S. cerevisiae, luminescence, single concentration, NALP1 inhibitor project, confirmation (AID 488841);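 note: plate controls were DMSO in galactose medium for no effect and cells in plain SD medium for full effect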
Conditions: S. cerevisiae NALP1/ASC/Caspase-1 reporter, beta-gal luminescence; at 10 µM; stronger effect = higher value
The whole screen tested about 1,400 compounds, of which about 380 (27%) were called active. The list shows a part of the results.
1 means recorded inhibition is 40% or above; -1 means it is below 40%.

| Compound | Classification |
| --- | --- |
| O=c1c(F)cn(C2CCCO2)c(=O)n1Cc1c(F)cccc1Cl (stereo not drawn) | -1 |
| CC(C)(C)OC(=O)NCCCCCc1nnc(SCc2ccccc2)o1 | 1 |
| Cc1ccc2nc(-c3ccc(NC(=O)CN(c4ccccc4C)S(C)(=O)=O)cc3)sc2c1 | -1 |
| Cc1ccc(/C=C/C(=O)NCc2ccc3c(c2)OCO3)o1 | -1 |
| CCCCC(CC(O)COCCC)c1n[nH]c(=S)n1-c1ccccc1 (stereo not drawn) | 1 |
| CC(C)(C)n1nc(-c2ccc(F)cc2)c2c(N)ncnc21 | 1 |
| COc1ccc(NCc2ccc([N+](=O)[O-])s2)c(OC)c1 | 1 |
| Cc1cccc(/C=C/C(=O)c2ccc(NC3=NCCCS3)cc2)c1 | 1 |
| C=CCOc1ccc2ccccc2c1/C=N/O | 1 |
| O=C(NN1C(=O)c2cc(Br)ccc2NC1c1cc(Br)cc(Br)c1O)c1ccncc1 (stereo not drawn) | 1 |
| C(=C\c1nc(N2CCCC2)c2ccccc2n1)/c1ccccc1 | 1 |
| O=C(O)c1cccnc1C(=O)N1CCc2c([nH]c3ccccc23)C1C(F)(F)F (stereo not drawn) | -1 |
| O=C1c2ccsc2SCCN1Cc1c(Cl)cccc1Cl | 1 |
| CC(C)Cc1nnc(NC(=O)CSc2nc(N)cc(=O)[nH]2)s1 | -1 |
| CC(C)Sc1nnc([C@H](Cc2ccccc2)NC(=O)OC(C)(C)C)o1 | -1 |
| CCCCCCCCCCOC(=O)Cn1c(COc2ccc(Cl)cc2)[n+](C)c2ccccc21 | -1 |
| O=C(COc1cccc2ccccc12)N1CCN(c2ccccc2)CC1 | 1 |
| COc1ccc(S(=O)(=O)N(CC(=O)N2CCOCC2)Cc2ccccc2)cc1C | -1 |
| COC(=O)c1ccc(C(=O)OC)c(NC(=O)CN2CCN(c3ccccc3OC)CC2)c1 | -1 |
| O=C(COC(=O)c1ccc(-c2ccc([N+](=O)[O-])cc2)o1)NC(=O)NC1CCCCC1 | -1 |
| Cc1cc(C)c(S(=O)(=O)N(CC(=O)O)CC(=O)O)c(C)c1 | -1 |
| Cc1cccc(C)c1C(OCCN(C)C)C1CCCCC1 (stereo not drawn) | -1 |

----------
Experiment: yeast NALP1 reporter signal suppression – S. cerevisiae, luminescence, single concentration, NALP1 inhibitor project, confirmation (AID 488841);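 note: plate controls were DMSO in galactose medium for no effect and cells in plain SD medium for full effect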
Conditions: S. cerevisiae NALP1/ASC/Caspase-1 reporter, beta-gal luminescence; at 10 µM
The whole screen tested about 1,400 compounds, of which about 380 (27%) were called active.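 How the source made its calls: active means mean inhibition above 50% across duplicate retests at 10 µM; inactive means the rest.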 Some of the results follow.
Labels: 1 (active), 0 (inactive)

| Molecule | Classification |
| --- | --- |
| CCN(C(=O)COC(=O)c1cccnc1Nc1cccc(C(F)(F)F)c1)C1CCS(=O)(=O)C1 (centres undefined) | 0 |
| CC(C)COC(=O)Nc1nnc(SCc2ccccc2F)s1 | 0 |
| CC(=O)n1cc(-c2ccncc2)c2ccccc21 | 0 |
| COC(=O)Cn1nc(-c2ccccc2)c2ccccc21 | 1 |
| CC(C)c1ccc(CN2CCN(C(=O)CCl)CC2)cc1 | 0 |
| COc1cc(Br)cc(C=Nc2cccc(C(F)(F)F)c2)c1O | 0 |
| Cc1ccc(NC(=O)/C=C\C(=O)NCC(=O)O)cc1C | 0 |
| CCN1CCN(c2cc3c(cc2F)c(=O)c(C(=O)O)cn3C2CC2)CC1 | 0 |
| CCCCNC(=O)C(=O)N/N=C/c1cccc(Br)c1 | 0 |
| O=C(O)Cn1nc(-c2ccccc2)oc1=O | 0 |
| O=S(=O)(CC(CN1CCCCC1)N1CCCCC1)c1ccc2ccccc2c1 (centres undefined) | 0 |
| CN(C)S(=O)(=O)c1cccc2c1C(=O)c1ccccc1C2=O | 0 |
| CN(C=[N+](C)C)c1cccc2c1C(=O)c1ccccc1C2=O | 0 |
| Cc1c(-c2ccccc2)[n+](=O)c2c(n1[O-])CCC2 | 0 |
| Cc1ccc(-c2csc3ncnc(Oc4cccc5ccc(C)nc45)c23)cc1 | 0 |
| Cn1c(SCC(=O)NC(c2ccccc2)c2ccccc2)nnc1-c1cccs1 | 0 |
| CCSc1nnc(NC(=O)c2ccc(C)o2)s1 | 1 |
| COc1ccc(-c2csc3ncnc(Oc4cccc5ccc(C)nc45)c23)cc1 | 1 |
| Cc1cc(Br)ccc1OCCCCN1CCC(C)CC1 | 1 |
| CCOC(=O)c1c(C(F)(F)C(F)(F)C(F)(F)C(F)(F)F)n[nH]c1C | 0 |
| N#CCc1c(C#N)c(N)nc(N2CCN(Cc3ccc4c(c3)OCO4)CC2)c1C#N | 0 |
| COC(=O)/C=C/C(=O)Nc1cccc(C(F)(F)F)c1 | 1 |
| O=C1c2cccc(O)c2C(=O)c2c(O)cccc21 | 1 |
| NC(=O)/C=C\C(=O)Nc1cccc(C(F)(F)F)c1 | 1 |
